Target: MLLT1 (Homo sapiens, UniProt Q03111)
Construct: endogenous in cells; host or cells: MV4-11 (ATCC CRL-9591)
Sequence (Q03111 1-559): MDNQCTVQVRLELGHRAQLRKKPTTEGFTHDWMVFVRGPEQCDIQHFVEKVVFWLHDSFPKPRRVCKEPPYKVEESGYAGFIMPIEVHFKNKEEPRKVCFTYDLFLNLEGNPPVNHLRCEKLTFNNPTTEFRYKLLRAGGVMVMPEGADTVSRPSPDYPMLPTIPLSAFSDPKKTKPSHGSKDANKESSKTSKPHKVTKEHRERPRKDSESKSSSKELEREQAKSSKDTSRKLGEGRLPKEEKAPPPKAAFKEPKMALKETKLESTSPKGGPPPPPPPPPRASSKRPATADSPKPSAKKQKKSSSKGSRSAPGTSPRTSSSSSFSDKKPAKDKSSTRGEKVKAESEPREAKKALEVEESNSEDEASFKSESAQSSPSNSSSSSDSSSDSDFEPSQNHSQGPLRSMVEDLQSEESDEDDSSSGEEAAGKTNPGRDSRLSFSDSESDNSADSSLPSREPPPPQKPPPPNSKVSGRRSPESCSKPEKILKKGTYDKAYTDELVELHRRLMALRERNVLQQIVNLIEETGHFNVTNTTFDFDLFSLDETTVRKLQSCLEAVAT
Test: MLLT1 degradation assay (JESS automated chemiluminescent detection) in MV4-11 cells
Type: cell-based
Details: 0.1 µM, 24h, with respect to DMSO control
Protocol: MLLT1 degradation efficacy of compounds was tested in an automated chemiluminescent detection system (JESS, Cat# 004-650). MV4-11 (#CRL-9591, ATCC) cells were seeded at a density of 1.2 million cells/well in a non-treated 6-well cell culture plate in 2.4 mL of complete medium (IMDM + 10% FBS + 1X Penicillin-Streptomycin). […] Post run, data were analysed using "Compass for SW" software for chemiluminescent detection. […]
QUANTITY NAME: inhibition at 0.1 µM

Q: Any idea what inhibition at 0.1 µM was measured for "Cc1nn(CCCCCCC2CCN(c3cccc(C(=O)N[C@H]4CCC(=O)NC4=O)n3)CC2)c2cc(C(=O)Nc3cc4[nH]c([C@H]5CCCN5C)cc4cn3)ccc12" ?
Result: ≥ 75%

Q: Using the record for Cc1nn(CCCCCCCCNc2cccc3c2C(=O)N(C2CCC(=O)NC2=O)C3=O)c2cc(C(=O)Nc3cc4[nH]c(C5CCCN5C)cc4cn3)ccc12 (racemic) , report its inhibition at 0.1 µM.
Result: ≥ 75%

Q: Which inhibition at 0.1 µM value is on record for Cc1nn(CCCCCCCCNc2cccc3c2C(=O)N(C2CCC(=O)NC2=O)C3=O)c2cc(C(=O)Nc3cc4[nH]c([C@@H]5CCCN5C)cc4cn3)ccc12 (some centres unmarked) ?
Result: < 25%

Q: Return reported inhibition at 0.1 µM; argument: Cc1nn(CCOCCOCCNc2cccc3c2C(=O)N(C2CCC(=O)NC2=O)C3=O)c2cc(C(=O)Nc3cc4[nH]c([C@H]5CCCN5C)cc4cn3)ccc12 (some centres unmarked)
Result: ≥ 75%

Q: # input compound: Cc1nn(CCCCCC#Cc2cccc(C(=O)NC3CCC(=O)NC3=O)c2F)c2cc(C(=O)Nc3cc4[nH]c([C@H]5CCCN5C)cc4cn3)ccc12 (some centres unmarked) ; wanted: its inhibition at 0.1 µM
Result: 50 to 75%

Q: Could you share which inhibition at 0.1 µM value was measured for Cc1nn(CCCCCCCC#Cc2cccc3c2CN(C2CCC(=O)NC2=O)C3=O)c2cc(C(=O)Nc3cc4[nH]c([C@H]5CCCN5C)c(C#N)c4cn3)ccc12 (some centres unmarked) ?
Result: ≥ 75%

Q: What value of inhibition at 0.1 µM has been recorded for this entry: CCN1CCC[C@@H]1c1cc2cnc(NC(=O)c3ccc4c(C)nn(CCCCCCCC#Cc5cccc6c5CN(C5CCC(=O)NC5=O)C6=O)c4c3)cc2[nH]1 (some centres unmarked)
Result: 50 to 75%

Q: // lookup inhibition at 0.1 µM for Cc1nn(CCCCCCCCNc2cccc3c2C(=O)N(C2CCC(=O)NC2=O)C3=O)c2cc(C(=O)Nc3cc4[nH]c([C@H]5CCCN5C)c(Cl)c4cn3)ccc12 (some centres unmarked)
Result: ≥ 75%

Q: Look up inhibition at 0.1 µM for this compound: Cc1nn(CCCCCCCC=C(Cl)c2ccc3c(c2)n(C)c(=O)n3C2CCC(=O)NC2=O)c2cc(C(=O)Nc3cc4[nH]c([C@H]5CCCN5C)cc4cn3)ccc12 (mixture of isomers)
Result: ≥ 75%

Q: Request the reported inhibition at 0.1 µM associated with Cc1nn(CCCCCCCC#Cc2cccc3c2CN(C2CCC(=O)NC2=O)C3=O)c2cc(C(=O)Nc3cc4[nH]c([C@H]5CCCN5C)cc4cn3)c(F)cc12 (some centres unmarked)
Result: ≥ 75%

Q: Endpoint output: inhibition at 0.1 µM of CN1CCC[C@@H]1c1cc2cnc(NC(=O)c3ccc4cnn(CCCCCCCC#Cc5cccc6c5CN(C5CCC(=O)NC5=O)C6=O)c4c3)cc2[nH]1 (some centres unmarked) . Value?
Result: ≥ 75%

Q: // inhibition at 0.1 µM lookup, key: "Cc1c(OCCCCCCCCn2nc(C)c3ccc(C(=O)Nc4cc5[nH]c([C@H]6CCCN6C)cc5cn4)cc32)cccc1N1CCC(=O)NC1=O"
Result: 25 to 50%

Q: Look up inhibition at 0.1 µM for this compound: Cc1nn(CCOCCNc2cccc3c2C(=O)N(C2CCC(=O)NC2=O)C3=O)c2cc(C(=O)Nc3cc4[nH]c([C@H]5CCCN5C)cc4cn3)ccc12 (some centres unmarked)
Result: ≥ 75%

Q: Fill in: inhibition at 0.1 µM of Cc1nn(CCCOCC#Cc2cccc3c2CN(C2CCC(=O)NC2=O)C3=O)c2cc(C(=O)Nc3cc4[nH]c([C@H]5CCCN5C)cc4cn3)ccc12 (some centres unmarked) is ___
Result: 50 to 75%

Reference source: patent EP4667466A1
